Assay: yeast display, Sf9 membrane polyspecificity reagent, FACS + sequencing; frameworks hold sequencing errors
quantity: polyreactivity (PSR sort gate)

seq | readout.value
QVQLVESGGGLVQAGGSLRLSCAASGRTFSIYAMGWYRQAPGKERELVASITGRGTRTYYADSVKGRFTISRDNAKNTVYLQMNSLKPEDTAVYYCNARGKVQSSYDDDYWGQGTQVTVSS | high polyreactivity
QVQLVESGGGLVQAGGSLRLSCAASGFIFRYYAMGWYRQAPGKERELVAAIRGNSGNTYYADSVKGRFTISRDNAKNTVYLQMNSLKPEDTAVYYCAKPFNIWGQGTQVTVSS | high polyreactivity

====

Experiment: yeast display, Sf9 membrane polyspecificity reagent, FACS + sequencing; frameworks hold sequencing errors

seq | polyreactivity (PSR sort gate)
QVQLVESGGGLVQAGGSLRLSCDASGFIFYGYVMGWYRQAPGKERELVAAITIGGSTNYADSVKGRFTISRDNAKNTVYLQRNSLKPEDTAVYYCAADQRSVTVGMDSWGQGTQVTVSS | low polyreactivity
QVQLVESRGGLVQAGGSLRLSCAASGRTFWYKAMGWYRQAPGKERELVAAISKSAAITYYADSVKGRFTISRDNAKNTVYLQMNSLKPEDTAVYYCNAGVRAVNRKYDYWGQGTQVTVSS | high polyreactivity
QVQLQESGGGLVQAGGSLRLSCAASGTIFWLWAMGRYCQAPGQDRELVASISSGGTTYHADSVKGRFTISRDKAKNPVYRQMNSVKPEDTAVYYRAAFYVATAKLGYWGQGSQVTVSS | low polyreactivity
QVQLVESGGGLVQAGGSLRLSCAASGRTFAYYAMGWYRQAPGTERELVAAISYSGARTYYADSVKGRFTISRDNAKNTVYLQMNSLKPEDTAVYYCAKSRGYPYTDYNYWGQGTQVTVSS | high polyreactivity
QVQLVDSGGGLVQAGGSLRLSCAASGRTFWYYDMGWYRQAPGKERELVATINNVGSTHYADSVKGRFTISRDNAKNTVYLQMNSLNPEDTAVYYCARASYGKMDYWGQGTQLTVSS | high polyreactivity
QVQVVESGGGLVQAGGSLRLSCAASGRIFGVNAMGWYRQAPGKERELVAVISSGGSTYYADSVKGRFTISRDNAKKTVYLQMNSLKPEDTAVYYCNAVVGRWFPYNLSDYWGQGTQVTVSS | low polyreactivity
QVQLVESGGGLVQAGGSLRLSWAAAGFIFYYNAMGRYRQAPGKERELVAAIDESGGSTYYADSVKGRFTISRDNATNTVYLQLNSLKPEDSAVYYCDTDDTWSISYGWYWFTYEYWGQGTQVTVSS | low polyreactivity
QVQLVESGGGLVQAGGSLRLSCAASGSTLGRNAMVWYRQAPGKERELVAAITTSGGSTYYADSVKGRFTISRDNAKNTVYLQMNSLKPEDTAVYYCAARTGYRNYGYWGQGSQVTVSS | high polyreactivity
QVQLVESGGGLVQAGGSLRLSCAASGNTLDAYAMGWYRQAPGKERELVAAITSGGSTYYADSVKGRFTISRDNAKNTVYLQMNSLKPEDTAVYYCNADGHPSDPGYDYWGQGTQVTVSS | low polyreactivity
QVQLVESGGGLVQAGGSLRLSCAASGSIFWYYAMGWYRQAPGKERELVAAISSGGSTYYADSVKGRFTISRDNAKNTVYLQMNSLKPEDTAVYYCAAGAFGQILNYWGQGTQVTVSS | high polyreactivity
QVQLVESGGGLVQAGGSLRLSCAASGFTFGGYAMGWYRQAPGKERELVARIRRSGGSTYYADSVKGRFTISRDNAKNTVYLQMNSLKPEDTAVYYCAAGYSRGQYRYNYWGQGTQVTVSS | high polyreactivity
QVQLVESGGGLVQAGGSLRLSCAASGSTFAVYAMGWYRQPPGKERELVAAITWSGGSTYYADSVKGRFTISRDNAKNTVYLQMNSLKPEDTAVYYCAAVVVRFIYVYFEFEWGQGTQVTVSS | low polyreactivity
QVQLVESGGGLVQAGGSLRLSCAASGSIFSKYAMGWYRQAPGKERELVAAIDWSGGSTYYADSVKGRFTISRDNAKNTVYLQMNSLKPEDTAVYYCNAEYVVADYGYYTIEFDYWGQGTQVTVSS | low polyreactivity
QVHLVESGGGLVQAGGSLRLSFAASGSTFYVNAMGWYRQAPGKERELVAAIRYSGGRTYYADSVKGRFTISRDNAKNNVYLQLNRLKPEDTAVYFCAATTYYGGLYTREFDYWGQGTQVTVSS | low polyreactivity
QFQLVESGGGLVQAGGSLRLSFAASGFIFGLYAMGWYRQAPGIETELVAAISGSGGSTYYADSVKGRFTISRDNAKNTVYLQMNSLKPEDTAVYYCNRAQGVHTYVYRYGYWGQGTQVTVSS | low polyreactivity
QVQLVESGGGLVQAGGSLRLSCAASGRTFFRYAMGWYRQAPGKERELVAVITRGGSTYYADSVKGRFTISRDNAKNTVYLQMNSLKPEDTAVYYCNADGRVQRKYDYWGQGTQVTVSS | high polyreactivity
QVQLVESGGGLVQAGGSLRLSCAASGFTFRYYAMGWYRQAPGKEREFVAAITYNGVSTYYADSVKGRFTISRDNAKNTVYLQMNSLKPEDTAVYYCAADVLLSRSNTPQRPSRLYYWGQGTQVTVSS | high polyreactivity
QVQLVESGGGLVQAVGSLRLSCAASGRTFDEYAMGWYRQAPGKERELVAAISTRGGSTYYADSVKGRFTISRDNAKNTVYLQMNSLKPEDTAVYYCAADYTKSSSPWPGYYWGQGTQVTVSS | high polyreactivity
QVQLVESGGGLVQAGGSLRLRCAASGSIFYGYAMGWYRQAPGKESEFVAAITTTGGSTYYADSVKGRFTISRDNSKYTVYLQMNSLKPEDTAVYYCATSGDRLVWGQVTQVTVSS | low polyreactivity
QVQLVESGGGLVQAGGSLRLSCAASGSILGLNVMGWYRQAPGTEREVVAAISRRGGSTYYADSVKGRFTISRDNAKNTVYLQMNSLKPEDTAVYYCAATRTARTMGYWGQGTQVTVSS | high polyreactivity
QVQLVESGGGLVQAGGSLRLSCAASGRIYWNDMGWYRQAPGKERELVAAISWGGDRTYYADSVKGRFTISRDNAKNSFYLQMNSLKPEDTAVYYFNAPGYLTYDHSYDYWGQGTQVTVSS | low polyreactivity
